Data origin: patent US9403801B2

- Assay Comment: Compound stability in rat liver microsomes
- Type: in vitro ADME
- Particulars: pH 7.4; Rat liver microsomes; in vivo CLint extrapolated
Give measured CLint scaled at 5 μM for each item. Keep answers brief.
Provide only the numeric value, understood in mL/min/kg.

What value of measured CLint scaled at 5 μM is listed for Cn1cc(Nc2ncc(C#N)c(NC3CC4CN(C(=O)CC#N)CC4C3)n2)cn1 (centres unmarked) ?
94.1

Quick one: CLint scaled at 5 μM for COc1cnc(Nc2cc(C3CC3)[nH]n2)nc1NC1CC2CN(C(=O)CC#N)CC2C1 (centres unmarked) ?
155

I have this compound here, Cn1cc(Nc2ncc(Cl)c(NC3CCC4CN(C(=O)CC#N)CC4C3)n2)cn1 (centres unmarked) , and I need its recorded CLint scaled at 5 μM.
204

Recorded CLint scaled at 5 μM for Cn1cc(Nc2ncc(Cl)c(NC3CC4CN(C(=O)C(F)(F)F)CC4C3)n2)cn1 (centres unmarked) , please?
1080

Any idea what its CLint scaled at 5 μM is? The compound is Cn1cc(Nc2ncc(Cl)c(NC3CC4CN(S(C)(=O)=O)CC4C3)n2)cn1 (centres unmarked)
188

Look up CLint scaled at 5 μM: Cn1cc(Nc2ncc(Cl)c(NC3CC4CNCC4C3)n2)cn1 (centres unmarked)
140

For CN(c1ccnc(Nc2cnn(C)c2)n1)C1CNCC12CCCC2 (centres unmarked) , what is its reported CLint scaled at 5 μM?
9.23

Value lookup for CLint scaled at 5 μM; key = Cn1cc(Nc2ncc(Cl)c(NC3CC4CN(CC(F)(F)F)CC4C3)n2)cn1 (centres unmarked)
913

Look up CLint scaled at 5 μM: Cc1nn(C)cc1Nc1ncc(Cl)c(NC2CC3CN(C(=O)CC#N)CC3C2)n1 (centres unmarked)
74

Quick check: CLint scaled at 5 μM of Cc1c(Nc2ncc(Cl)c(NC3CC4CN(C(=O)CC#N)CC4C3)n2)cnn1C (centres unmarked) ?
117

Could you share which CLint scaled at 5 μM value was measured for CN(c1nc(Nc2cnn(C)c2)ncc1Cl)C1CC2CN(C(=O)CC#N)CC2C1 (centres unmarked) ?
204

# CLint scaled at 5 μM lookup, item Cc1cnc(Nc2cnn(C)c2)nc1NC1CC2CN(C(=O)CC#N)CC2C1 (centres unmarked)
10.3

Look at this compound and give its reported CLint scaled at 5 μM. Cn1nc(C2CC2)cc1Nc1ncc(Cl)c(NC2CC3CN(C(=O)CC#N)CC3C2)n1 (centres unmarked)
60

Recorded CLint scaled at 5 μM for Cc1cc(Nc2ncc(Cl)c(NC3CC4CN(C(=O)CC#N)CC4C3)n2)nn1C (centres unmarked) , please?
67.3

Return reported CLint scaled at 5 μM; argument: Cn1cc(Nc2ncc(Cl)c(NC3CC4CN(C(=O)CC#N)CC4C3)n2)cn1 (centres unmarked)
208

Which CLint scaled at 5 μM value is on record for N#CCC(=O)N1CC2CC(Nc3nc(Nc4cnn(CCO)c4)ncc3Cl)CC2C1 (centres unmarked) ?
6.24

For the compound Cc1cnc(Nc2cnn(C)c2)nc1NC1CC2CN(S(C)(=O)=O)CC2C1 (centres unmarked) , what CLint scaled at 5 μM is on record?
30.6

Using the record for N#CCC(=O)N1CC2CC(Nc3nc(Nc4cnn(CC5CC5)c4)ncc3Cl)CC2C1 (centres unmarked) , report its CLint scaled at 5 μM.
121

// CLint scaled at 5 μM lookup, key: CC(=O)N1CC2CC(Nc3nc(Nc4cnn(C)c4)ncc3Cl)CC2C1 (centres unmarked)
91.4

Entry under review: CC(=O)N1CC2CC(Nc3nc(Nc4cc(C5CC5)[nH]n4)ncc3Cl)CC2C1 (centres unmarked) . Reported CLint scaled at 5 μM?
108
